# Test system: CCRF-CEM
# Measurement Notes: Cytostatic activity against thymidine-kinase deficient human CEM cells after 72 hrs by cell counting
# Format: functional, cell-based
pIC50: −log10 of the molar value.
Parameter Measured: pIC50

INSERT INTO results (compound, parameter_measured, reported) VALUES
  ('C[C@H](NP(=O)(OC[C@H]1O[C@@H](n2cc(F)c(=O)[nH]c2=O)C[C@@H]1O)Oc1cccc2ccccc12)C(=O)OC1CCC1 (mixture of isomers)', 'pIC50', 5.82),
  ('C[C@H](NP(=O)(OC[C@H]1O[C@@H](n2cc(F)c(=O)[nH]c2=O)C[C@@H]1O)Oc1ccccc1)C(=O)OCc1ccccc1 (mixture of isomers)', 'pIC50', 4.66),
  ('C[C@H](NP(=O)(OC[C@H]1O[C@@H](n2cc(F)c(=O)[nH]c2=O)C[C@@H]1O)Oc1cccc2ccccc12)C(=O)OC1CCCCC1 (mixture of isomers)', 'pIC50', 6.00),
  ('CC(C)OC(=O)[C@H](C)NP(=O)(OC[C@H]1O[C@@H](n2cc(F)c(=O)[nH]c2=O)C[C@@H]1O)Oc1ccccc1 (mixture of isomers)', 'pIC50', 4.52),
  ('CSCC[C@H](NP(=O)(OC[C@H]1O[C@@H](n2cc(F)c(=O)[nH]c2=O)C[C@@H]1O)Oc1cccc2ccccc12)C(=O)OCc1ccccc1 (mixture of isomers)', 'pIC50', 4.96),
  ('CCCCOC(=O)[C@H](C)NP(=O)(OC[C@H]1O[C@@H](n2cc(F)c(=O)[nH]c2=O)C[C@@H]1O)Oc1cccc2ccccc12 (mixture of isomers)', 'pIC50', 6.08),
  ('COC(=O)[C@H](C)NP(=O)(OC[C@H]1O[C@@H](n2cc(F)c(=O)[nH]c2=O)C[C@@H]1O)Oc1ccccc1 (mixture of isomers)', 'pIC50', 4.46),
  ('CCOC(=O)[C@H](C)NP(=O)(OC[C@H]1O[C@@H](n2cc(F)c(=O)[nH]c2=O)C[C@@H]1O)Oc1ccccc1 (mixture of isomers)', 'pIC50', 4.85),
  ('O=C(OCc1ccccc1)[C@@H]1CCCN1P(=O)(OC[C@H]1O[C@@H](n2cc(F)c(=O)[nH]c2=O)C[C@@H]1O)Oc1ccccc1 (mixture of isomers)', 'pIC50', 4.55),
  ('C[C@H](NP(=O)(OC[C@H]1O[C@@H](n2cc(F)c(=O)[nH]c2=O)C[C@@H]1O)Oc1cccc2ccccc12)C(=O)OC1Cc2ccccc2C1 (mixture of isomers)', 'pIC50', 6.00),
  ('CCOC(=O)C(C)(C)NP(=O)(OC[C@H]1O[C@@H](n2cc(F)c(=O)[nH]c2=O)C[C@@H]1O)Oc1ccccc1 (mixture of isomers)', 'pIC50', 4.66),
  ('C[C@H](NP(=O)(OC[C@H]1O[C@@H](n2cc(F)c(=O)[nH]c2=O)C[C@@H]1O)Oc1cccc2ccccc12)C(=O)OCCC(C)(C)C (mixture of isomers)', 'pIC50', 6.72);

====

# System: CCRF-CEM
# Measurement Notes: Cytostatic activity against thymidine-kinase deficient human CEM cells after 72 hrs by cell counting
# Assay type: functional, cell-based
pIC50: −log10 of the molar value.
Respond with Fulfilled for pIC50 values of 6 and above, Not fulfilled for values below.

INSERT INTO results (molecule, assigned_class) VALUES
  ('CC(C)[C@H](NP(=O)(OC[C@H]1O[C@@H](n2cc(F)c(=O)[nH]c2=O)C[C@@H]1O)Oc1cccc2ccccc12)C(=O)OC1CCCCC1 (mixture of isomers)', 'Not fulfilled'),
  ('CCCCCOC(=O)[C@H](CC(C)C)NP(=O)(OC[C@H]1O[C@@H](n2cc(F)c(=O)[nH]c2=O)C[C@@H]1O)Oc1cccc2ccccc12 (mixture of isomers)', 'Not fulfilled'),
  ('CC(C)C[C@H](NP(=O)(OC[C@H]1O[C@@H](n2cc(F)c(=O)[nH]c2=O)C[C@@H]1O)Oc1ccccc1)C(=O)OCc1ccccc1 (mixture of isomers)', 'Not fulfilled'),
  ('O=c1[nH]cc(F)c(=O)[nH]1 [FLUOROURACIL]', 'Not fulfilled'),
  ('CCCCCOC(=O)[C@H](C)NP(=O)(OC[C@H]1O[C@@H](n2cc(F)c(=O)[nH]c2=O)C[C@@H]1O)Oc1cccc2ccccc12 (mixture of isomers)', 'Fulfilled'),
  ('C[C@H](NP(=O)(OC[C@H]1O[C@@H](n2cc(F)c(=O)[nH]c2=O)C[C@@H]1O)Oc1cccc2ccccc12)C(=O)OCc1ccccc1 (mixture of isomers) [FOSIFLOXURIDINE NAFALBENAMIDE]', 'Fulfilled'),
  ('CCCCCOC(=O)C(C)(C)NP(=O)(OC[C@H]1O[C@@H](n2cc(F)c(=O)[nH]c2=O)C[C@@H]1O)Oc1cccc2ccccc12 (mixture of isomers)', 'Not fulfilled'),
  ('CCOC(=O)[C@@H](NP(=O)(OC[C@H]1O[C@@H](n2cc(F)c(=O)[nH]c2=O)C[C@@H]1O)Oc1ccccc1)C(C)C (mixture of isomers)', 'Not fulfilled'),
  ('CCCCCOC(=O)[C@H](CCSC)NP(=O)(OC[C@H]1O[C@@H](n2cc(F)c(=O)[nH]c2=O)C[C@@H]1O)Oc1ccccc1 (mixture of isomers)', 'Not fulfilled'),
  ('CCOC(=O)[C@H](C)NP(=O)(OC[C@H]1O[C@@H](n2cc(F)c(=O)[nH]c2=O)C[C@@H]1O)Oc1cccc2ccccc12 (mixture of isomers)', 'Not fulfilled');
